Source: ChEMBL document CHEMBL1770120

So I've got a bunch of compounds here, and I need their CLint scaled values.
- Assay info: Intrinsic clearance in human liver microsomes
- Format: ADME, Microsome
One number for each entry, in mL/min/kg.

Observe how each entry below is paired with its result.
structure_smiles_string=CC(=O)O[C@@]12CO[C@@H]1C[C@H](O)[C@@]1(C)C(=O)[C@H](O)C3=C(C)[C@@H](OC(=O)[C@H](O)[C@@H](NC(=O)OC(C)(C)C(F)(F)F)c4ccc(F)cc4)C[C@@](O)([C@@H](OC(=O)c4ccccc4)[C@H]21)C3(C)C unit_of_measure=mL/min/kg reported_result=0.36
structure_smiles_string=CC(=O)O[C@@]12CO[C@@H]1C[C@H](O)[C@@]1(C)C(=O)[C@H](O)C3=C(C)[C@@H](OC(=O)[C@H](O)[C@@H](NC(=O)OC(C)(C)C(F)F)c4ccc(F)cc4)C[C@@](O)([C@@H](OC(=O)c4ccccc4)[C@H]21)C3(C)C unit_of_measure=mL/min/kg reported_result=3.41

Prompt: Indicate the recorded CLint scaled value for this compound: CC(=O)O[C@@]12CO[C@@H]1C[C@H](O)[C@@]1(C)C(=O)[C@H](O)C3=C(C)[C@@H](OC(=O)[C@H](O)[C@@H](NC(=O)OC(C)(C)CF)c4ccc(F)cc4)C[C@@](O)([C@@H](OC(=O)c4ccccc4)[C@H]21)C3(C)C
Completion: 8.62

* * *

- Assay info: Apparent volume of distribution in Sprague-Dawley rat at 5 mg/kg, iv by LC-MS/MS analysis
- Format: ADME, organism-based
- Parameters: dose 5 mg/kg, route intravenous
- Particulars: in vivo, read-out: Vz
Quantity: Vd (L/kg)
One number for each entry, in L/kg.

Observe how each entry below is paired with its result.
structure_smiles_string=CC(=O)O[C@@]12CO[C@@H]1C[C@H](O)[C@@]1(C)C(=O)[C@H](O)C3=C(C)[C@@H](OC(=O)[C@H](O)[C@@H](NC(=O)OC(C)(C)CF)c4ccccc4)C[C@@](O)([C@@H](OC(=O)c4cccc(F)c4)[C@H]21)C3(C)C reported_result=22.7
structure_smiles_string=CC(=O)O[C@@]12CO[C@@H]1C[C@H](O)[C@@]1(C)C(=O)[C@H](O)C3=C(C)[C@@H](OC(=O)[C@H](O)[C@@H](NC(=O)OC(C)(C)CF)c4ccccc4)C[C@@](O)([C@@H](OC(=O)c4ccccc4)[C@H]21)C3(C)C reported_result=89.7
structure_smiles_string=CC(=O)O[C@@]12CO[C@@H]1C[C@H](O)[C@@]1(C)C(=O)[C@H](O)C3=C(C)[C@@H](OC(=O)[C@H](O)[C@@H](NC(=O)OC(C)(C)C(F)F)c4ccccc4)C[C@@](O)([C@@H](OC(=O)c4cccc(F)c4)[C@H]21)C3(C)C reported_result=36.2

Prompt: Indicate the recorded Vd value for this compound: CC(=O)O[C@@]12CO[C@@H]1C[C@H](O)[C@@]1(C)C(=O)[C@H](O)C3=C(C)[C@@H](OC(=O)[C@H](O)[C@@H](NC(=O)OC(C)(C)C(F)F)c4ccc(F)cc4)C[C@@](O)([C@@H](OC(=O)c4ccccc4)[C@H]21)C3(C)C
Completion: 27.4

* * *

- Assay info: Apparent volume of distribution in Sprague-Dawley rat at 5 mg/kg, iv by LC-MS/MS analysis
- Format: ADME, organism-based
- Parameters: dose 5 mg/kg, route intravenous
- Particulars: in vivo, read-out: Vz
Quantity: Vd

Go through the items and report each one's Vd.
1. CC(=O)O[C@@]12CO[C@@H]1C[C@H](O)[C@@]1(C)C(=O)[C@H](O)C3=C(C)[C@@H](OC(=O)[C@H](O)[C@@H](NC(=O)OC(C)(C)C(F)(F)F)c4ccccc4)C[C@@](O)([C@@H](OC(=O)c4cccc(F)c4)[C@H]21)C3(C)C
2. CC(=O)O[C@@]12CO[C@@H]1C[C@H](O)[C@@]1(C)C(=O)[C@H](O)C3=C(C)[C@@H](OC(=O)[C@H](O)[C@@H](NC(=O)OC(C)(C)C(F)(F)F)c4ccc(F)cc4)C[C@@](O)([C@@H](OC(=O)c4ccccc4)[C@H]21)C3(C)C

Completion:
13.7 L/kg
15.8 L/kg
